For each record, write down the corresponding pIC50.
System: B16V mouse melanoma cells
experimental.details: Depigmenting effect on melanoma cell cultures (inhibition of pigmentation)
Assay type: cell-based
condition.parameters: 96 h, read-out: IC50 (concentration at which pigmentation is inhibited by 50%)
Description: B16V mouse melanoma cells are disseminated in a 96-well microtitre plate in a concentration of 5×10^3 cells/well. […] After incubation, sodium lauryl sulfate and sodium hydroxide solution (final concentrations: 1 mM and 1 M respectively) are added to the culture medium and the absorption (A) is measured after 3 h at 400 nm. […] From the inhibition of pigmentation (%) in a series of dilutions of test compounds, the IC50 for each test compound is calculated. […]
Answers are plain numbers, as −log10 of the molar value.

# molecule, pIC50
records = [
    ("CCNC(=O)OC1CC(C)CC(C)(C)C1 (stereo not drawn) [BIO1572]", 4.20),
]

Lab note: each molecule below needs its pIC50 filled in.
1. COCCCNC(=O)OC1CC(C)CC(C)(C)C1 (stereo not drawn) [BIO1574]
2. CCNC(=O)OC1CC2CCC1(C)C2(C)C (stereo not drawn) [BIO1573]

Resp:
1: 5.02; 2: 4.13
